experiment: AUC (infinity) in NMRI mouse at 30 mg/kg, po; assay type: ADME, organism-based; set-up: dose 30 mg/kg, route po; conditions: in vivo
observed-property: AUC(0-inf) (µM·h)
Number only, in µM·h; omit the unit.

I would be grateful if you could share the reported AUC(0-inf) for C[C@@H](NC(=O)c1nn(-c2ccccc2Cl)c(-c2ccc(Cl)cc2)c1Cc1nn[nH]n1)c1ccc(C(F)(F)F)cc1 .
297

====

# concentration at 6 h listing for each entry below
test: Drug concentration in DIO mouse adipose tissue at 10 mg/kg, po measured for 6 hrs; format: ADME, organism-based; conditions: read-out: Drug uptake
Phrase the answer as number then unit, nothing more needed.

A selection of reference data follows.
[
  {
    "structure-smiles": "C[C@@H](NC(=O)c1nn(-c2ccccc2Cl)c(-c2ccc(Cl)cc2)c1Cc1nn[nH]n1)c1ccc(OC(F)(F)F)cc1",
    "endpoint-result": "4000 nM"
  },
  {
    "structure-smiles": "C[C@@H](NC(=O)c1nn(-c2ccccc2Cl)c(-c2ccc(Cl)cc2)c1Cc1nn[nH]n1)c1ccc(C(F)(F)F)cc1",
    "endpoint-result": "1200 nM"
  },
  {
    "structure-smiles": "O=C(O)Cc1c(C(=O)N2CCC(c3ccc(F)cc3)CC2)nn(-c2ccccc2Cl)c1-c1ccc(Cl)cc1",
    "endpoint-result": "350 nM"
  }
]

Moving on to another molecule below.
I would be grateful if you could share the reported concentration at 6 h for O=C(O)Cc1c(C(=O)N2CCC(c3ccccc3F)CC2)nn(-c2ccccc2Cl)c1-c1ccc(Cl)cc1 .
1500 nM
